Target: HA of A/Hong Kong/8/68 (H3N2) virus (influenza A virus)
Assay: cell-based or functional assay
Field: Neutralization IC50, H3-HK68. Provide a value for each of the binders that follow.
Give bare numbers, in µg/mL.

Antibody 5 (antibody, V domains shown) VH: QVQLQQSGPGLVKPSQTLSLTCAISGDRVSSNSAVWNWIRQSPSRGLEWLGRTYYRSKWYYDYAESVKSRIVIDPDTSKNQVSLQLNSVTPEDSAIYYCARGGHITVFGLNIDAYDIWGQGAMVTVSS VL: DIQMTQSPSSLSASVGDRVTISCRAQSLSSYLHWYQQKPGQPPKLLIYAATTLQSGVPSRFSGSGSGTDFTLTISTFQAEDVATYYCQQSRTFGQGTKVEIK	0.39
Antibody 8 (antibody, V domains shown) VH: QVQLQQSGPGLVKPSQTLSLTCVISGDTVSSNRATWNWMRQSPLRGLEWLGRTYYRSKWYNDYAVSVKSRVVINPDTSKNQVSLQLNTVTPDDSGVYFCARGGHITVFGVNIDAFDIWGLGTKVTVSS VL: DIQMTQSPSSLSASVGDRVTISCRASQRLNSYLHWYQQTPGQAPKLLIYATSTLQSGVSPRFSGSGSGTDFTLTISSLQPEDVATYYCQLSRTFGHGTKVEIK	2.82

Field: next binder
Name the recorded Neutralization IC50, H3-HK68 of the item Antibody 3 (antibody, V domains shown) VH: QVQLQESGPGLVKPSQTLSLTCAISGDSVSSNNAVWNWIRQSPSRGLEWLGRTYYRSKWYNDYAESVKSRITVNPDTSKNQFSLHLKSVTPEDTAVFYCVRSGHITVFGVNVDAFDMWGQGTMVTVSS VL: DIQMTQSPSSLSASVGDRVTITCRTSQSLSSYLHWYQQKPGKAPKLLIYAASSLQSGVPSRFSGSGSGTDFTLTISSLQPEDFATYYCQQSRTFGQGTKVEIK in your answer.
0.68
